All values here come from patent US20080026996A1.

What EC50 cAMP, Alpha Screen was measured for each of the following?
Target: T1, human VPAC2 receptor (human, UniProt P41587 24-438)
T1 sequence (looked up): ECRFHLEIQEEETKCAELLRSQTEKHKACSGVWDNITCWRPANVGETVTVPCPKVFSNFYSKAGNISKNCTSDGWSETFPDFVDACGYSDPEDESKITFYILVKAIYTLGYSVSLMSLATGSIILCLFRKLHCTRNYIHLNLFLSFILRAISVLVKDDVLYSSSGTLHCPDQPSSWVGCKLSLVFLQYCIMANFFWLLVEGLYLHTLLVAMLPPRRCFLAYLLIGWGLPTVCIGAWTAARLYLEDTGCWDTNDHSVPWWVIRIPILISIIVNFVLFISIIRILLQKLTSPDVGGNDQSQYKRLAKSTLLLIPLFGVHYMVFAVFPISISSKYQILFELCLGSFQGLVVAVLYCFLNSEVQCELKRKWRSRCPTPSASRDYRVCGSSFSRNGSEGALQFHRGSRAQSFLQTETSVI
Test: cell-based or functional assay
Where no end group is shown, it is not given here. [ ]: non-standard residue; d: D form. The star is where a group is joined. Hexanoyl = CCCCCC(=O)*; Aib = CC(C)(N)C(=O)O
Answers are plain numbers, in nM.

Known results for binders:
binder	result units	EC50 cAMP, Alpha Screen
H[dA]DAVFTDNYTRLRKQVAAKKYLQSIKNKRYGGPSSGAPPPS [P47]	nM	1.39
Hexanoyl-HSDAVFTDNYTRLR[Aib]QLAA[Aib]KYLQSIKNKGGPSSGAPPPS (ends and bridges not checked) [P292]	nM	0.23
Hexanoyl-HSDAVFTDNYTRLRKQVAAK[Aib]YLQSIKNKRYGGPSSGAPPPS (ends and bridges not checked) [P170]	nM	0.18
Hexanoyl-HSDAVFTDNYTRLRAQVAAQKYLQSIKNKRYGGPSSGAPPPS [P138]	nM	0.45
Hexanoyl-HGEGTFTDNYTRLRKQVAAKKYLQSIKNKRYGGPSSGAPPPS [P222]	nM	0.51
Hexanoyl-HSEAVFTDNYTRLRKQVAAKKYLQSIKNKRYGGPSSGAPPPS [P224]	nM	0.14
Hexanoyl-HSDAVFTDNYTRL[Aib]KQLAA[Aib]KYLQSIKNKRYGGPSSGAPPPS (ends and bridges not checked) [P240]	nM	0.51
Hexanoyl-HSDLVFTDNYTRLRKQVAAKKYLQSIKNKRYGGPSSGAPPPS [P223]	nM	5.82
Hexanoyl-HSDAVFTDNYTRL[Aib]KQLAAK[Aib]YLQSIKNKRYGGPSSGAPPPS (ends and bridges not checked) [P241]	nM	2.17
Hexanoyl-HSDAVFTDNYTRLR[Aib]QVAAAKYLQSIKNKRYGGPSSGAPPPS (ends and bridges not checked) [P263]	nM	0.07

Consider now this further binder.
Task: Specify EC50 cAMP, Alpha Screen for HSDAVFTDNYTRLRKQVAARKYLQSIKNKRYGGPSSGAPPPS [P20] and stop.
Result: 2.77
